FYI, the data here is from PubChem BioAssay (NCI).

# Test system: HCC-2998 colon
# runDescription: NCI-60 one-dose screen, 48 h (100 = growth as untreated, 0 = no growth, -100 = all killed)
# measurementParameters: 10 µM unless noted
About 83,000 compounds went through this panel and 20% of them were active in at least one assay; those are over-represented in the sample as a whole.
fulfilled means recorded growth is 50% or above; not fulfilled means it is below 50%.

Record excerpt, results attached:
OC1CCN(CCCOc2c3ccc(Cl)cc3nc3c2oc2ccccc23)CC1 ... not fulfilled
Nc1cc(-c2c[nH]c3ccc(F)cc23)nc2cc(-c3c[nH]c4ccc(F)cc34)nn12 ... fulfilled
CCN1CCN(/C(=N\c2sc(-c3ccccc3)nc2-c2ccccc2)c2ccccc2)CC1 ... fulfilled
O=[N+]([O-])c1ccc(O)c2ncccc12 ... not fulfilled
CN(C)c1ccc(/C=c2\sc3nc4ccccc4n3c2=O)cc1 ... fulfilled
CCCC(=O)NC(c1ccc2c(c1)OC(F)(F)O2)c1cc(C)c2cccnc2c1O (stereo not given) ... fulfilled
Cc1cccc2sc(/N=C(\N)C(Br)Br)nc12 ... not fulfilled
COc1cc(OC)c(C2SCC(=O)N2Nc2ncnc3ccccc23)cc1OC (stereo not given) ... fulfilled

Next up:
Lookup: Does growth meet or surpass 50% for N#Cc1c(-c2ccc(Cl)cc2)nc(SCc2ccc([N+](=O)[O-])cc2)nc1N1CCNCC1 ?
Found: not fulfilled

###

# System: HS 578T breast
# runDescription: NCI-60 one-dose screen, 48 h (100 = growth as untreated, 0 = no growth, -100 = all killed)
# measurementParameters: 10 µM unless noted
This is part of a sample that, as a whole, favours compounds with a hit. Of some 83,000 tested, about 20% had one in any assay.
endpoint: growth (%)
Please reply with the bare figure in % and do not write the unit itself.

Known results for compounds:
COc1cccc(-c2nn(-c3ccccc3)cc2-c2ccnc(N3CCN(C(=O)c4ccccc4)CC3)c2)c1 ... 100
O=C1Nc2cc(Cl)ccc2/C1=C\c1ccc(OCc2ccc([N+](=O)[O-])cc2)cc1 ... 60.9
CCOC(=O)c1c(Nc2ccccc2)nn2c(N)c(C#N)c(-c3ccc(OC)cc3)nc12 ... 19.4
COc1cc2nc(-c3ccc(Cl)cc3)cc(OCCCNCC3CCCO3)c2cc1OC (stereo unspecified) ... 76.6
CNC(=O)c1cc(-c2ccc(NC(=O)Nc3ccc(N4CCOCC4)c(C(F)(F)F)c3)cc2)nc2cccnc12 ... 32.2

Field growth (entry C/C(=C(/c1ccc(Cl)cc1)c1ccc(OCCN)cc1)c1ccc(C)cc1 ) reads 96.7

Field growth (entry Cc1cccc2sc(/N=C(\N)C(Cl)(Cl)Cl)nc12 ) reads 97.1

Field growth (entry O=C(Oc1ccc2ccc(=O)oc2c1)c1ccc(Cl)cc1 ) reads 103

Field growth (entry CCC/C=C/C=C/C(=O)N[C@@H](Cc1cc(F)cc(F)c1)C(=O)N[C@@H]1C(=O)N2CCC[C@H]2C(=O)N2CCCC[C@H]2C(=O)N[C@@H](C)C(=O)N2C[C@H](C)C[C@H]2C(=O)O[C@H]1C ) reads 31

Field growth (entry CN1CCN(Cc2ccc(NC(=O)c3cncc(C#Cc4cnc5[nH]ncc5c4)c3)cc2C(F)(F)F)CC1 ) reads 20.1

Field growth (entry C/C(=N/NC(N)=S)c1ccc(Nc2nc(SCC(C)C)nc(-c3ccc(F)cc3)c2C#N)cc1 ) reads 4

Field growth (entry COc1cc2nc(-c3ccc(C(F)(F)F)cc3)cc(OCCCNCC3CCCO3)c2cc1OC (stereo unspecified) ) reads 55.6

Field growth (entry NS(=O)(=O)c1cccc(Nc2nc(SCC(=O)c3ccc([N+](=O)[O-])cc3)nc3ccccc23)c1 ) reads 65.6

Field growth (entry COc1cccc(-c2nn(-c3ccccc3)cc2-c2ccnc(N3CCN(C(=O)Nc4ccc(F)cc4)CC3)c2)c1 ) reads 85.8

Field growth (entry COc1cc(-c2nc3ccc(-c4nnc(SCC(=O)Nc5ccc(C(=O)/C=C/c6ccc(Cl)cc6)cc5)o4)cc3[nH]2)cc(OC)c1OC ) reads 87.9

Field growth (entry Clc1ccc2c(NCCCn3ccnc3)c3oc4ccc(Cl)cc4c3nc2c1 ) reads 91.1

Field growth (entry Cc1c(NC(=O)CSc2nc3sc4c(c3c(=O)n2-c2ccc(Cl)cc2)CCCC4)c(=O)n(-c2ccccc2)n1C ) reads 88.3

Field growth (entry O=C1C2=C(C(=O)c3c(O)cccc31)C(c1ccco1)c1sc(=O)[nH]c1S2 (stereo unspecified) ) reads -10.4

Field growth (entry Nc1cc(-c2c[nH]c3ccc(F)cc23)nc2cc(-c3c[nH]c4ccc(F)cc34)nn12 ) reads 112

Field growth (entry C#Cc1nc(C2=C(C)/C(=N/OCc3ccccc3)CC2)cs1 ) reads 70.9

Field growth (entry Cc1ccc(C(=O)Nc2cccc(C(F)(F)F)c2)cc1Nc1nc(-c2cnccn2)nc2c1cnn2C ) reads 51.2

Field growth (entry CCOC(=O)c1c(Nc2ccccc2)nn2c(-c3ccco3)c(C#N)cnc12 ) reads 72

Field growth (entry COc1cc(-c2ccc3ncnc(NC(C)c4ccccc4)c3c2)cnc1OC (stereo unspecified) ) reads 21.1

Field growth (entry N#Cc1nc(-c2ccccc2)oc1S(N)(=O)=O ) reads 95

Field growth (entry [Cl][Ru].c1ccc(-c2cc(-c3ccccn3)nc(-c3ccccn3)c2)cc1.c1ccc(-c2ccnc3c2ccc2c(-c4ccccc4)ccnc23)cc1 ) reads -15.1

Field growth (entry CN(C)CCCOc1c2ccc(Cl)cc2nc2c1oc1ccc(Cl)cc12 ) reads 26.3
